Data credit: PubChem BioAssay

Recorded measurements of composite z-score, one per entry
# testedSystem: Fibroblast growth factor 10 (Homo sapiens)
# testMethodNotes: FGF10 binders on small-molecule microarrays, primary screen, biochemical, small-molecule microarray, 635 nm fluorescence (AID 1102)
# setupConditions: FGF10 binding, fluorescence 635 nm, higher = more signal
Reply with just the number.

// known answers, use as guide
| itemSmiles | composite z-score |
| --- | --- |
| NC(=O)NCC#Cc1ccc2c(c1)[C@]1(C(=O)N2)[C@H](C(N)=O)[C@H]2C(=O)O[C@H](c3ccccc3)[C@H](c3ccccc3)N2[C@@H]1c1ccc(O)cc1 | 0.353 |
| COCCOC(=O)N1C(=O)[C@@]2(c3cc(C#CCC(C(=O)OC)C(=O)OC)ccc31)[C@H](c1ccccc1OCCO)N1[C@H](c3ccccc3)[C@H](c3ccccc3)OC(=O)[C@H]1[C@@H]2C(=O)N1CCN(c2ncccn2)CC1 | 1.08 |

Let's switch to this compound now.
Enquiry: composite z-score for NC(=O)[C@@H]1[C@H]2C(=O)O[C@H](c3ccccc3)[C@H](c3ccccc3)N2[C@H](c2ccc(O)cc2)[C@@]12C(=O)Nc1ccccc12 ?
Return: -0.433

###

# testMethodNotes: small-molecule binders of probe aNOTCH3, primary screen, biochemical, small-molecule microarray, 635/667 nm fluorescence (AID 1120);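 note: probe is a biotin-tagged antibody raised against NOTCH3 rather than NOTCH3 protein; score merges spot fluorescence near 667 nm with spot signal to noise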
# setupConditions: higher = more signal
quantity: composite z-score
Please reply with the number alone, leaving off any unit.

| compound | quantity | experimentalValue |
| --- | --- | --- |
| COc1cc(C(O)C2C=CC3C(=O)NC(=O)C3N2Nc2ccccn2)cc(OC)c1OC (stereo not drawn) | composite z-score | -0.108 |
| CC1(C)[C@@H]2CC(C(O)C3C=CC4C(=O)N(c5ccccc5)C(=O)C4N3Nc3ccc([N+](=O)[O-])cc3)=C[C@H]1C2 (stereo partly drawn) | composite z-score | 0.101 |
| C=CCNC(=O)[C@H]1[C@@H]2C(=O)O[C@@H](c3ccccc3)[C@@H](c3ccccc3)N2[C@@H](c2ccccc2OCCO)[C@]12C(=O)Nc1ccc(C#CCCO)cc12 | composite z-score | -0.214 |
| CC1CC/C=C\[C@H]2OC34C=CCN(Cc5ccccc5)C(=O)[C@H]3N(CCCO)C(=O)[C@@H]4C2C(=O)O1 (stereo partly drawn) | composite z-score | -0.437 |
| C=C(CCCC)C(=O)CC[C@@H](OC(=O)c1ccccc1-c1ccccc1C(=O)O)c1ccc(OCCO)cc1 | composite z-score | -0.185 |

Enquiry: Can you look up the measured composite z-score of CCOC(=O)C[C@H]1[C@H](OC(=O)c2ccc(C(=O)c3ccccc3)cc2)[C@@H](NC(=O)c2ccccc2)c2cc(OCCCO)ccc2N1C(=O)c1ccc2ccccc2n1 for me?
Return: 0.0561

Enquiry: Consider next the compound O=C1NC(=O)C2C1C=CC(C(O)c1cccs1)N2Nc1ccc(Cl)cc1Cl (stereo not drawn) in the same way.
Return: 0.267

Enquiry: Consider next the compound C[N+](C)(C)CCCCNC(=O)[C@H]1C[C@H]2C(=O)N3CCC[C@H]3C(=O)N2[C@H]1c1cccc(OCCO)c1 in the same way.
Return: -0.0663

Enquiry: One more compound: COCCOC(=O)N1C(=O)[C@@]2(c3ccccc31)[C@H](c1ccccc1OCCO)N1[C@H](c3ccccc3)[C@H](c3ccccc3)OC(=O)[C@H]1[C@@H]2C(=O)N1CCN(c2ncccn2)CC1
Return: -0.0345

Enquiry: Now try COCCOC(=O)N1C(=O)[C@@]2(c3cc(C#Cc4ccc(OC)cc4)ccc31)[C@H](c1ccc(OCCO)cc1)N1[C@H](c3ccccc3)[C@H](c3ccccc3)OC(=O)[C@H]1[C@@H]2C(=O)N1CCN(c2ncccn2)CC1 .
Return: -0.0311

Enquiry: Query COC(=O)[C@@]1(Cc2ccccc2)[C@H]2c3cc(C(=O)N4CCCC4)n(Cc4ccc(S(C)(=O)=O)cc4)c3C[C@H]2CN1C(=O)c1ccccc1 next
Return: 0.511

Enquiry: Similarly, CN1C(=O)C2C=CC(C(O)c3ccco3)N(Nc3ccccc3)C2C1=O (stereo not drawn) ?
Return: 0.0974

Enquiry: Item: COC(=O)[C@@]1(Cc2ccccc2)[C@H]2c3cc(C(=O)N(C)C)n(Cc4ccsc4Br)c3C[C@H]2CN1C(=O)c1ccccc1
Return: 0.501

Enquiry: Also, NC(=O)[C@@H]1[C@H]2C(=O)O[C@H](c3ccccc3)[C@H](c3ccccc3)N2[C@H](c2ccc(O)cc2)[C@@]12C(=O)Nc1ccccc12 please.
Return: -0.288

Enquiry: Repeat for the following compound: CCOC(=O)[C@H]1C/C=C/C[C@H](C(=O)OCC)C(=O)O[C@H]2[C@@H](OC)O[C@H](CO)[C@@H](OC(=O)c3c(OC)cccc3OC)[C@@H]2OC1=O
Return: 0.275

Enquiry: Next compound up: CCC[C@@H]1C[C@@]1(CCC)[C@@H](NS(=O)(=O)c1cccc2cccnc12)c1ccc(Cl)cc1
Return: 0.0496

Enquiry: // repeat for O=C1C[C@@](C(=O)NCCN2CCOCC2)(c2ccc([N+](=O)[O-])cc2)[C@@H](c2ccc(CO)cc2I)N1CC12CC3CC(CC(C3)C1)C2 and report
Return: 0.0842

Enquiry: Also C=CCC(OC(C)=O)[C@@H]1[C@@H](N(Cc2ccc(-c3ccccc3)cc2)C(=O)Cc2ccc(OC)cc2)c2cc(OCCCO)ccc2N1C(=O)Cc1ccc2ccccc2c1 (stereo partly drawn) ?
Return: -0.0841

Enquiry: Follow-up item: CCOC(=O)C[C@H]1[C@H](OC(=O)c2cc3ccccc3oc2=O)[C@@H](NC(=O)c2ccccc2)c2cc(OCCCO)ccc2N1C(=O)c1ccc2ccccc2n1
Return: 0.0496

Enquiry: Entry C[N+](C)(C)CCCC[C@@H]1NC(=O)[C@H]2C[C@@H](C(=O)NCCCCCCNC(=O)CS)[C@@H](c3cccc(OCCO)c3)N2C1=O please
Return: -0.246

Enquiry: Follow-up item: C=C(COC)/C(=C/C[C@H](OC(C)=O)c1ccc(CO)o1)c1cc(C(=O)OC)ccc1OC
Return: -0.103

Enquiry: Again, but for COC(=O)c1c(CC[C@@H](CO)NC(=O)NCCn2cc(C3(O)CCCC3)nn2)oc(C(C)=O)c1C(=O)OC
Return: -0.209

Enquiry: Can you check CC(C)NC(=O)[C@@H]1c2ccccc2C(=O)N(C2Cc3ccccc3C2)[C@H]1c1ccc(CO)cc1 next?
Return: -0.145

Enquiry: Request: NC(=O)N1C(=O)C2C(C1=O)C1C=C(c3ccc(CO)cc3)C2C(c2cccs2)N1Cc1cccc(OC(F)(F)F)c1 (stereo not drawn)
Return: 0.111
